Molecular target: sGC α1/β1 heterodimer (Homo sapiens (Human), UniProt Q02108+Q02153)
Assay: Cell-based sGC functional assay (cyclic GMP assay for sGC activator: CASA assay)
Details: inflection point, 4P fit; CHO-K1/sGC cells; read-out: IP
Description: Cell-Based sGC Functional Assay (Cyclic GMP Assay for sGC Activator: CASA Assay) Soluble guanylate cyclase (sGC) is a heme-containing enzyme that converts GTP to secondary messenger cGMP. […] A CHO-K1 cell line stably expressing the sGC α1/β1 heterodimer was generated using a standard transfection protocol. […] The level of intracellular cGMP was determined using an HTRF-based assay kit (CisBio, 62GM2PEC), which detects the displacement of a fluorescence labeled cGMP from its specific antibody. […]
Parameter: EC50 (nM)
Numbers only, in nM.

The cases that follow already have their EC50 on record.
[
  {
    "Molecule": "C[C@@]1(c2ccc(CCC(=O)O)cc2)C(=O)Nc2nc(-c3nn(Cc4ccccc4F)c4ncccc34)nc(N)c21 [Example 21B]",
    "Unit label": "nM",
    "EC50": 362
  },
  {
    "Molecule": "CC1(N2CCC(CCC(=O)O)C2)C(=O)Nc2nc(-c3nn(Cc4ccccc4F)c4cc(Cl)ccc34)nc(N)c21 (single isomer, unassigned) [Example 261D]",
    "Unit label": "nM",
    "EC50": 444
  },
  {
    "Molecule": "CC(C)(Cn1cc(C2(C)C(=O)Nc3nc(-c4nn(Cc5ccccc5F)c5ncccc45)nc(N)c32)cn1)C(=O)O (stereo not shown) [Example 145A]",
    "Unit label": "nM",
    "EC50": 391
  }
]

Here is another molecule to look at.
Record C[C@@]1(c2ccc(CCC(=O)O)cc2)C(=O)Nc2nc(-c3nn(CCCC(F)(F)F)c4ncc(F)cc34)nc(N)c21 [Example 18B] / sGC α1/β1 heterodimer (Homo sapiens (Human), UniProt Q02108+Q02153), EC50 recorded as 2500

---

Target: human recombinant sGC enzyme (Homo sapiens (Human), UniProt Q02108+Q02153)
Test: Size Exclusion Chromatography (SEC) competition binding assay using [3H] Ex-77B as the radioligand
Details: [3H] Ex-77B radioligand, 24 hours at 37° C.
Mark criterion met only when Ki stays strictly below 0.1 nM. Values equal to the cut-off are criterion not met.

Record CC(C)(Cc1coc(C2(C)C(=O)Nc3nc(-c4nn(CC5CCCCC5)c5cc(Cl)ccc45)nc(N)c32)n1)C(=O)O (stereo not drawn) [Example 159A] : is its Ki strictly below 0.1 nM?
criterion not met

Record C[C@@]1(c2ccc(CCC(=O)O)cc2)C(=O)Nc2nc(-c3nn(Cc4ccccc4F)c4ncccc34)nc(N)c21 [Example 21B] : is its Ki strictly below 0.1 nM?
criterion met

Record CC1(c2ccc(CCP(=O)(O)O)cc2)C(=O)Nc2nc(-c3nn(Cc4ccccc4F)c4cc(Cl)ccc34)nc(N)c21 (stereo not drawn) [Example 257A] : is its Ki strictly below 0.1 nM?
criterion not met

Record CC(C)(Cc1csc([C@]2(C)C(=O)Nc3nc(-c4nn(CC5CCCCO5)c5ccccc45)nc(N)c32)n1)C(=O)O (single isomer, unassigned) [Example 229AB] : is its Ki strictly below 0.1 nM?
criterion not met

Record CC1(c2ccc(/C=C/C(=O)O)cc2)C(=O)Nc2nc(-c3nn(CCC(F)(F)C(F)(F)F)c4cc(Cl)ccc34)nc(N)c21 (stereo not drawn) [Example 157A] : is its Ki strictly below 0.1 nM?
criterion not met

Record CC1(c2cccc(-c3nn[nH]n3)n2)C(=O)Nc2nc(-c3nn(Cc4ccccc4F)c4cc(Cl)ccc34)nc(N)c21 (single isomer, unassigned) [Example 253A] : is its Ki strictly below 0.1 nM?
criterion not met
